- test-details: qHTS assay to test for compound auto fluorescence at 535 nm (green) in HepG2 cell free culture (AID 720686); note: % is set by controls: 0 for no effect and ±100 for the full control effect
- experimental-setup: Cell-free medium, green autofluorescence 485/535 nm; series mostly up to 91.3 µM
The source made the active and inactive calls. Calls come from the whole dose curve; as a rule, active = well fitted curve in the direction sought with a large enough effect in the repeat runs; inconclusive = weak or mixed curves; inactive = flat fitted curve, though single readings scatter.
parameter-measured: fluorescence, % of fluorescein control

Here are 5 compounds together with their reported answers.
Cc1ccc(C(=O)O)cc1 | inactive
OC[C@H]1O[C@H](O[C@H]2O[C@H](CO)[C@@H](O)[C@H](O)[C@H]2O)[C@H](O)[C@@H](O)[C@@H]1O | inactive
CCC(=O)C(=O)CC | inactive
CC/C=C\CCCCCO | inactive
Nc1nc2c(ncn2COCCO)c(=O)[nH]1 | -0.0997% [at 18.6 µM] (inactive)

Now look at this entry.
Would you mind telling me what fluorescence, % of fluorescein control value was observed for CC1=CCC(=C(C)C)CC1 ? inactive

Cited source: PubChem BioAssay (Tox21)
